Reported IC50 values are given for each entry in this list.
system: CDK1 (Homo sapiens)
Sequence (P06493 whole entry): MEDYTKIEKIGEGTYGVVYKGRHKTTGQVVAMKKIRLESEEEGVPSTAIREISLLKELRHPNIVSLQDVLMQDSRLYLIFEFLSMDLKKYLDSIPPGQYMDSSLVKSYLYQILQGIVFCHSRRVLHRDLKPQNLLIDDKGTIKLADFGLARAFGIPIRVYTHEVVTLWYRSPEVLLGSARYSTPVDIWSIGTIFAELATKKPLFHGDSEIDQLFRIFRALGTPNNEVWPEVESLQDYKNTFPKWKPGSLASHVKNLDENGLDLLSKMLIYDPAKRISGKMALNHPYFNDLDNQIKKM
Sequence (P14635 whole entry partner): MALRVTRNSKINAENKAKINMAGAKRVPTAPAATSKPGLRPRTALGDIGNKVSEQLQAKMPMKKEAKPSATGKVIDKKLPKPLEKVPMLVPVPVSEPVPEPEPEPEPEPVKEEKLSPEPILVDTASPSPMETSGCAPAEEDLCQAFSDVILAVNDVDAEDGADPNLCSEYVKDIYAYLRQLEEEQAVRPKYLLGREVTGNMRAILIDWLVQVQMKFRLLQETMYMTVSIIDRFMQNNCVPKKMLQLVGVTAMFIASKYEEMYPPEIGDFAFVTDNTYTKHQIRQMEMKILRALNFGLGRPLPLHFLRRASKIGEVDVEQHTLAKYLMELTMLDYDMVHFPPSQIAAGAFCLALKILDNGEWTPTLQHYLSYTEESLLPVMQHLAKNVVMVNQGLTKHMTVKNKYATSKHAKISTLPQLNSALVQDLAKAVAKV

[
  {
    "chemical_structure": "N#Cc1sc2cnc(Nc3ccc(N4CCOCC4)cc3)cc2c1C1CCCC1",
    "unit_string": "nM",
    "IC50": 1680
  },
  {
    "chemical_structure": "N#Cc1sc2cnc(Nc3ccc(N4CCOCC4)nc3)cc2c1C1CCCC1",
    "unit_string": "nM",
    "IC50": 324
  },
  {
    "chemical_structure": "CS(=O)(=O)N1CCN(c2ccc(Nc3cc4c(C5CCCC5)c(C#N)sc4cn3)nc2)CC1",
    "unit_string": "nM",
    "IC50": 101
  },
  {
    "chemical_structure": "N#Cc1sc2cnc(Nc3cnc(N4CCOCC4)nc3)cc2c1C1CCCC1",
    "unit_string": "nM",
    "IC50": 22000
  }
]
